Biological target: mouse VISTA (mVISTA) (Mus musculus)
Construct: expressed in transfected cells; host or cells: Human embryonic kidney 293T cells
Sequence (Q9D659 33-308): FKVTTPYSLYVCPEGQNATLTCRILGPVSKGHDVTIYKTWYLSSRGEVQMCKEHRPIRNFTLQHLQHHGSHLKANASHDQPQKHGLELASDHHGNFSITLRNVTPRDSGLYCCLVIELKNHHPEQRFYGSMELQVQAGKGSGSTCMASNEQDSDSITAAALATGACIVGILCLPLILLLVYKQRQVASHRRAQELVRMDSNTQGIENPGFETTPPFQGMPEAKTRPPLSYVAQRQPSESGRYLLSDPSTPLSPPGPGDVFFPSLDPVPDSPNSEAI
Experiment: Cell-Based Binding High-Content Assay For mVISTA (HC CBA mVISTA)
Conditions: read-out: HC CBA mVISTA IC50
Positions of bridges follow the written chain, without caps; N, C: chain ends. Non-standard residues stand in square brackets, D forms with d. Residues, ends and D or L forms follow the SMILES beside them. Phe(3-Br) = N[C@@H](Cc1cccc(Br)c1)C(=O)O; Gly(cPr) = N[C@H](C(=O)O)C1CC1; Ahp(2) = CCCCC[C@H](N)C(=O)O; NMeNle = CCCC[C@H](NC)C(=O)O; Tle = CC(C)(C)[C@H](N)C(=O)O; NMeV = CN[C@H](C(=O)O)C(C)C; NHexGly = CCCCCCNCC(=O)O; Nle = CCCC[C@H](N)C(=O)O; Orn = NCCC[C@H](N)C(=O)O
Recorded pIC50, one value per entry.
Note: pIC50 values are expressed as the negative base-10 logarithm of concentration in M.

Could you share which pIC50 value was measured for CCCCCCN1CC(=O)N[C@@H](Cc2ccc(O)cc2)C(=O)N[C@@H](CCCC)C(=O)N[C@@H](CC(N)=O)C(=O)N[C@@H](CCCN)C(=O)N(C)[C@@H](CCCC)C(=O)N[C@@H](CCCCC)C(=O)N2CCC[C@H]2C(=O)N[C@@H](C(C)(C)C)C(=O)N[C@@H](CC(=O)O)C(=O)N[C@H](C(=O)NCC(N)=O)CSCC(=O)N[C@@H](Cc2ccccc2)C(=O)N[C@@H](Cc2c[nH]c3ccccc23)C(=O)N[C@@H](CC(=O)O)C1=O [Example 1394] ({CH2CO}-FWD[NHexGly]Y[Nle]N[Orn][NMeNle][Ahp(2)]P[Tle]DCG-NH2; thioether N-14) ?
7.46

Could you share which pIC50 value was measured for CCCCCCN1CC(=O)N[C@@H](Cc2ccc(O)cc2)C(=O)N[C@@H](CC(C)C)C(=O)NCC(=O)N[C@@H](CCCNC(=N)N)C(=O)N[C@@H](CC(C)C)C(=O)N[C@@H](CCCCC)C(=O)N2CCC[C@H]2C(=O)N[C@@H](C(C)C)C(=O)N[C@@H](CO)C(=O)N[C@H](C(=O)NCC(N)=O)CSCC(=O)N[C@@H](Cc2ccccc2)C(=O)N[C@@H](Cc2c[nH]c3ccccc23)C(=O)N[C@@H](CC(=O)O)C1=O [Example 1358] ({CH2CO}-FWD[NHexGly]YLGRL[Ahp(2)]PVSCG-NH2; thioether N-14) ?
7.71

Could you share which pIC50 value was measured for CCCCCCN1CC(=O)N[C@@H](Cc2ccc(O)cc2)C(=O)N[C@@H](CCCC)C(=O)N[C@@H](CC(N)=O)C(=O)N[C@@H](CCCNC(=N)N)C(=O)N[C@@H](CC(C)C)C(=O)N[C@@H](CCCCC)C(=O)N2CCC[C@H]2C(=O)N[C@@H](C(C)C)C(=O)N[C@@H](CC(=O)O)C(=O)N[C@H](C(=O)NCC(=O)O)CSCC(=O)N[C@@H](Cc2ccccc2)C(=O)N[C@@H](Cc2c[nH]c3ccccc23)C(=O)N[C@@H](CC(=O)O)C1=O [Example 1361] ({CH2CO}-FWD[NHexGly]Y[Nle]NRL[Ahp(2)]PVDCG-OH; thioether N-14) ?
8.28

Could you share which pIC50 value was measured for CCCCCCN1CC(=O)N[C@@H](Cc2ccc(O)cc2)C(=O)N[C@@H](CC(C)C)C(=O)N[C@@H](CC(N)=O)C(=O)N[C@@H](CCCNC(=N)N)C(=O)N(C)[C@@H](CCCC)C(=O)N[C@@H](CCCCC)C(=O)N2CCC[C@H]2C(=O)N[C@@H](C(C)(C)C)C(=O)N[C@@H](CO)C(=O)N[C@H](C(=O)NCC(N)=O)CSCC(=O)N[C@@H](Cc2ccccc2)C(=O)N[C@@H](Cc2cccc(Br)c2)C(=O)N[C@@H](CC(=O)O)C1=O [compound 1203] ({CH2CO}-F[Phe(3-Br)]D[NHexGly]YLNR[NMeNle][Ahp(2)]P[Tle]SCG-NH2; thioether N-14) ?
7.29

Could you share which pIC50 value was measured for CCCCCCN1CC(=O)N[C@@H](Cc2ccc(O)cc2)C(=O)N[C@@H](CC(C)C)C(=O)NCC(=O)N[C@@H](CCCNC(=N)N)C(=O)N[C@@H](CC(C)C)C(=O)N[C@@H](CCCCC)C(=O)N2CCC[C@H]2C(=O)N[C@@H](C(C)C)C(=O)N2CCC[C@H]2C(=O)N[C@H](C(=O)NCC(N)=O)CSCC(=O)N[C@@H](Cc2ccccc2)C(=O)N[C@@H](Cc2ccc(O)cc2)C(=O)N[C@@H](CC(=O)O)C1=O [compound 1125] ({CH2CO}-FYD[NHexGly]YLGRL[Ahp(2)]PVPCG-NH2; thioether N-14) ?
7.47

Could you share which pIC50 value was measured for CCCCCCN1CC(=O)N[C@@H](Cc2ccc(O)cc2)C(=O)N[C@@H](CCCC)C(=O)N[C@@H](CC(N)=O)C(=O)N[C@@H](CCCNC(=N)N)C(=O)N(C)[C@@H](CCCC)C(=O)N[C@@H](CCCCC)C(=O)N2CCC[C@H]2C(=O)N[C@@H](C2CC2)C(=O)N[C@@H](CO)C(=O)N[C@H](C(=O)NCC(N)=O)CSCC(=O)N[C@@H](Cc2ccccc2)C(=O)N[C@@H](Cc2c[nH]c3ccccc23)C(=O)N[C@@H](CC(=O)O)C1=O [Example 1389] ({CH2CO}-FWD[NHexGly]Y[Nle]NR[NMeNle][Ahp(2)]P[Gly(cPr)]SCG-NH2; thioether N-14) ?
7.46

Could you share which pIC50 value was measured for CCCCCCN1CC(=O)N[C@@H](Cc2ccc(O)cc2)C(=O)N[C@@H](CCCC)C(=O)N[C@@H](CC(N)=O)C(=O)N[C@@H](CCCNC(=N)N)C(=O)N(C)[C@@H](C(C)C)C(=O)N[C@@H](CCCCC)C(=O)N2CCC[C@H]2C(=O)N[C@@H](C(C)C)C(=O)N[C@@H](CC(=O)O)C(=O)N[C@H](C(=O)NCC(=O)O)CSCC(=O)N[C@@H](Cc2ccccc2)C(=O)N[C@@H](Cc2c[nH]c3ccccc23)C(=O)N[C@@H](CC(=O)O)C1=O [Example 1409] ({CH2CO}-FWD[NHexGly]Y[Nle]NR[NMeV][Ahp(2)]PVDCG-OH; thioether N-14) ?
7.90

Could you share which pIC50 value was measured for CCCCCCN1CC(=O)N[C@@H](Cc2ccc(O)cc2)C(=O)N[C@@H](CCCC)C(=O)N[C@@H](CC(N)=O)C(=O)N[C@@H](CCCNC(=N)N)C(=O)N(C)[C@@H](CCCC)C(=O)N[C@@H](CCCCC)C(=O)N2CCC[C@H]2C(=O)N[C@@H](C(C)C)C(=O)N[C@@H](CCCNC(=N)N)C(=O)N[C@H](C(=O)NCC(=O)O)CSCC(=O)N[C@@H](Cc2ccccc2)C(=O)N[C@@H](Cc2c[nH]c3ccccc23)C(=O)N[C@@H](CC(=O)O)C1=O [Example 1380] ({CH2CO}-FWD[NHexGly]Y[Nle]NR[NMeNle][Ahp(2)]PVRCG-OH; thioether N-14) ?
7.92

###

Target: mouse VISTA (mVISTA) (Mus musculus)
Construct: expressed in transfected cells; host or cells: Human embryonic kidney 293T cells
Assay: Cell-Based Binding High-Content Assay For mVISTA (HC CBA mVISTA)
Settings: 293T cells expressing mouse VISTA; competition with biotinylated peptide (2 nM); read-out: HC CBA mVISTA IC50
Description: Cell-Based Binding High-Content Assay For mVISTA Human embryonic kidney 293T cells (293T) expressing mouse VISTA (mVISTA) were used for the assessment of compounds competing with the binding of a biotinylated peptide. […] The plates were washed 3 times in dPBS, sealed, and read on a CellInsight NXT High Content Screening Platform IC903000 (Thermo Scientific). […]
Positions of bridges follow the written chain, without caps; N, C: chain ends. Non-standard residues stand in square brackets, D forms with d. Residues, ends and D or L forms follow the SMILES beside them. Ahp(2) = CCCCC[C@H](N)C(=O)O; NHexGly = CCCCCCNCC(=O)O; Nle = CCCC[C@H](N)C(=O)O
ASSAY_ENDPOINT: IC50 (nM)
Field format: number, assumed nM, no unit text.

COMPOUND	UNIT_STRING	IC50
CCCCCCN1CC(=O)N[C@@H](Cc2ccc(O)cc2)C(=O)N[C@@H](CC(C)C)C(=O)N[C@@H](CC(N)=O)C(=O)N[C@@H](CCCNC(=N)N)C(=O)N[C@@H](CC(C)C)C(=O)N[C@@H](CCCCC)C(=O)N2CCC[C@H]2C(=O)N[C@@H](C(C)C)C(=O)N[C@@H](C(C)C)C(=O)N[C@H](C(=O)NCC(=O)O)CSCC(=O)N[C@@H](Cc2ccccc2)C(=O)N[C@@H](Cc2ccc(O)cc2)C(=O)N[C@@H](CC(=O)O)C1=O [Example 1066] ({CH2CO}-FYD[NHexGly]YLNRL[Ahp(2)]PVVCG-OH; thioether N-14)	nM	2.4

Attention now shifts to the item below.
Could you share which IC50 value was measured for CCCCCCN1CC(=O)N[C@@H](Cc2ccc(O)cc2)C(=O)N[C@@H](CCCC)C(=O)N[C@@H](CC(N)=O)C(=O)N[C@@H](CCCNC(=N)N)C(=O)N[C@@H](CC(C)C)C(=O)N[C@@H](CCCCC)C(=O)N2CCC[C@H]2C(=O)N[C@@H](C(C)C)C(=O)N[C@@H](CC(=O)O)C(=O)N[C@H](C(=O)NCC(=O)O)CSCC(=O)N[C@@H](Cc2ccccc2)C(=O)N[C@@H](Cc2ccc(O)cc2)C(=O)N[C@@H](CC(=O)O)C1=O [Example 1020] ({CH2CO}-FYD[NHexGly]Y[Nle]NRL[Ahp(2)]PVDCG-OH; thioether N-14) ?
22.5
